Target: HDAC6 enzyme (Homo sapiens, UniProt Q9UBN7)
Construct: prepared by transducing full length HDAC1 and HDAC6 genes into Sf-9 insect cells; GST; purchased SignalChem; host or cells: Sf-9 insect cells
Sequence (Q9UBN7 1-1215): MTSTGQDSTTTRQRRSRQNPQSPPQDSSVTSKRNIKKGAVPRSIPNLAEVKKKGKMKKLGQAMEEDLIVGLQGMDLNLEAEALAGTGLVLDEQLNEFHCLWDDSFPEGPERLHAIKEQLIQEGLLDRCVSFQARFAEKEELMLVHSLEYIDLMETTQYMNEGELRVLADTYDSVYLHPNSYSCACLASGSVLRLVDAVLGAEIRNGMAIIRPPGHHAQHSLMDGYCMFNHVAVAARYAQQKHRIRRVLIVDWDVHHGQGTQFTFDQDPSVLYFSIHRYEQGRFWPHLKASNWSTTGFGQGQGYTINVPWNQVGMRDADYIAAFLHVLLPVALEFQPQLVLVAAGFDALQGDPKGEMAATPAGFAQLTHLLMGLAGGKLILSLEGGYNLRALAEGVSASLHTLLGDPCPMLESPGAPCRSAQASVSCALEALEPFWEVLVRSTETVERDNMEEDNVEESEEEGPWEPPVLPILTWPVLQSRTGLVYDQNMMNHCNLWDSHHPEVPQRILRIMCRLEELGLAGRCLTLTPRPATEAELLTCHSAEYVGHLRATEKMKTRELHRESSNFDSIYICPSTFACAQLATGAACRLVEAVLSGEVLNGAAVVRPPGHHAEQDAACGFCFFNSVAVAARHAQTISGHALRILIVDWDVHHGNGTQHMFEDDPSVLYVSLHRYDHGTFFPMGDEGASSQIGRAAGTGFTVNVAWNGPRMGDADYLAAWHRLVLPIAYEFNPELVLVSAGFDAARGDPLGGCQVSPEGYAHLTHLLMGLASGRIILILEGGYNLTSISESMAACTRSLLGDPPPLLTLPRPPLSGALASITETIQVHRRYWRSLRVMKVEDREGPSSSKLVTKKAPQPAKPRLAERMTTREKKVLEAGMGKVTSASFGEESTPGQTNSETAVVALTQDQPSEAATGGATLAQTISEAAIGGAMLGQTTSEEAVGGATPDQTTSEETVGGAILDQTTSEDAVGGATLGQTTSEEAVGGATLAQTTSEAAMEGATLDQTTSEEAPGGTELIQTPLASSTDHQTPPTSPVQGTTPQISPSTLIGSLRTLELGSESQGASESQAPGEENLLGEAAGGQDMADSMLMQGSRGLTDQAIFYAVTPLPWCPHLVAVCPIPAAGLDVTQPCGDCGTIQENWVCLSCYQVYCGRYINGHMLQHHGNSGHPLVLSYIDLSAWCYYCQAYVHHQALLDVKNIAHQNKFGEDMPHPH
Assay: HDAC6 enzyme inhibitory assay (HDAC-Glo I/II Assay kit)
Format: biochemical
Settings: 1 μM test compound; read-out: HDAC6 inhibitory rate (%) (1 μM)
measurement_label: inhibition at 1 µM (%)
The reply should contain only the number, in %.

Sample records with inhibition at 1 µM:
{"columns": ["molecule", "inhibition at 1 µM (%)"],
 "data": [
  ["O=C(NC[C@H]1COCCN1C(=O)c1ccncc1)c1ccc(-c2noc(C(F)(F)F)n2)cn1", 96],
  ["Cc1cc(C(=O)N2CCOCC2CNC(=O)c2ccc(-c3noc(C(F)(F)F)n3)cc2)ccn1 (stereo in doubt)", 87],
  ["Cn1nccc1C(=O)N1CCCC[C@@H]1CNC(=O)c1ccc(-c2noc(C(F)(F)F)n2)cc1", 98],
  ["O=C(NCC1COCCN1C(=O)CCc1ccccc1)c1ccc(-c2noc(C(F)(F)F)n2)s1 (stereo not drawn)", 98],
  ["O=C(NC[C@H]1COCCN1C(=O)C1CCc2ccccc2O1)c1ccc(-c2noc(C(F)(F)F)n2)cc1 (stereo partly drawn)", 97],
  ["O=C(NC[C@H]1COCCN1C(=O)C1CCCCC1)c1ccc(-c2noc(C(F)(F)F)n2)cn1", 97],
  ["O=C(NCC1COCCN1C(=O)c1ccccc1)c1ccc(-c2noc(C(F)(F)F)n2)nc1 (stereo not drawn)", 91],
  ["Cc1cc(C(=O)N2CCOC[C@H]2CNC(=O)c2ccc(-c3noc(C(F)(F)F)n3)cc2)on1", 97]
]}

Exercise: Quick one: inhibition at 1 µM for O=C(NC[C@H]1COCCN1C(=O)Cn1cnccc1=O)c1ccc(-c2noc(C(F)(F)F)n2)cc1 ?
Key: 15

Exercise: Quick one: inhibition at 1 µM for O=C(NC[C@H]1COCCN1C(=O)N1CCCCC1CO)c1ccc(-c2noc(C(F)(F)F)n2)cc1 (stereo partly drawn) ?
Key: 99

Exercise: Quick one: inhibition at 1 µM for O=C(NC[C@H]1COCCN1C(=O)c1cc2ccccc2o1)c1ccc(-c2noc(C(F)(F)F)n2)cc1 ?
Key: 95
